B1: Zinc finger homeobox protein 4, residues 2562 to 2617; numbered along this chain, Q86UP3 (parent)
chain: RLRTTITPEQLEILYEKYLLDSNPTRKMLDHIAREVGLKKRVVQVWFQNTRARERK

# Variants of: B1
# assay-overview: abundance fitness (aPCA) (normalised: wild type 0, dead -1); higher = more abundant; growth selection in yeast, the domain comes from the species named
# stated-conditions: Homo sapiens

[
  {
    "variant-identifier": "G37I",
    "abundance fitness": -0.828
  },
  {
    "variant-identifier": "L29R",
    "abundance fitness": -0.346
  },
  {
    "variant-identifier": "L29S",
    "abundance fitness": -0.498
  },
  {
    "variant-identifier": "L20N",
    "abundance fitness": -0.122
  },
  {
    "variant-identifier": "M28E",
    "abundance fitness": -0.003
  },
  {
    "variant-identifier": "L19F",
    "abundance fitness": -0.065
  },
  {
    "variant-identifier": "K39C",
    "abundance fitness": 0.142
  },
  {
    "variant-identifier": "R34G",
    "abundance fitness": 0.123
  },
  {
    "variant-identifier": "Y18K",
    "abundance fitness": -0.544
  },
  {
    "variant-identifier": "L20F",
    "abundance fitness": -0.062
  },
  {
    "variant-identifier": "R34C",
    "abundance fitness": -0.223
  }
]
